Listed below: KA values for each entry.
# Target System: anti-TNFα antibody-Fab (IgG-Fab derived from anti-TNFα monoclonal antibody, adalimumab) (Homo sapiens, UniProt P01834+P01857)
# Construct: cleaving a humanized monoclonal IgG formulation as a starting material into a Fab fragment and an Fc fragment by papain; purchased
# Assay Overview: Biacore 3000 surface plasmon resonance, affinity of SpG-β1 mutants for immobilized IgG-Fab
# Type: binding
# Test Settings: Table 2, Example 3; GST-fused one-domain peptide
Where no end group is shown, it is not given here.
Express the result in M⁻¹ but write the number alone.

Some entries whose results are on file:
{"columns": ["Substance", "KA [M⁻¹]"],
 "data": [
  ["K13T/E19I/K28I/F30L/Y33F/E42Q/D47Y: GST-fused one-domain SpG-β1 mutant, amino acid SEQ ID NO: 59 (TTYKLILNGKTLTGETTTIAVDAATAEIVLKQFANDNGVDGQWTYDYATKTFTVTE; also: GST-fused)", "1.45e+06"],
  ["K13T/E19I/E27D/F30L/K31R: GST-fused one-domain SpG-β1 mutant, amino acid SEQ ID NO: 35 (TTYKLILNGKTLTGETTTIAVDAATADKVLRQYANDNGVDGEWTYDDATKTFTVTE; also: GST-fused)", "2.74e+06"],
  ["K13T/E19I/V21D/K28I/F30L/K31R/D47H: GST-fused one-domain SpG-β1 mutant, amino acid SEQ ID NO: 75 (TTYKLILNGKTLTGETTTIADDAATAEIVLRQYANDNGVDGEWTYDHATKTFTVTE; also: GST-fused)", "1.39e+06"]
]}

Look up KA of K13T/E19I/A23D/V39L: GST-fused one-domain SpG-β1 mutant, amino acid SEQ ID NO: 31 (TTYKLILNGKTLTGETTTIAVDDATAEKVFKQYANDNGLDGEWTYDDATKTFTVTE; also: GST-fused) and report it. 1.36e+06

###

# Target System: anti-TNFα antibody-Fab (IgG-Fab derived from anti-TNFα monoclonal antibody, adalimumab) (Homo sapiens, UniProt P01834+P01857)
# Construct: cleaving a humanized monoclonal IgG formulation as a starting material into a Fab fragment and an Fc fragment by papain; purchased
# Assay Overview: Biacore 3000 surface plasmon resonance, affinity of SpG-β1 mutants for immobilized IgG-Fab
# Format: binding
# Test Settings: Table 2, Example 3; GST-fused one-domain peptide; 25° C., pH 7.4
Where no end group is shown, it is not given here.
# label = Yes if kon >= 90000 s/M else No

Look over these answered cases.
{"columns": ["Substance", "Classification"],
 "data": [
  ["K13T/E19I/F30L/D47A/K50E: GST-fused one-domain SpG-β1 mutant, amino acid SEQ ID NO: 65 (TTYKLILNGKTLTGETTTIAVDAATAEKVLKQYANDNGVDGEWTYDAATETFTVTE; also: GST-fused)", "No"],
  ["K13T/E19I/F30L/Y45F/D47Y: GST-fused one-domain SpG-β1 mutant, amino acid SEQ ID NO: 83 (TTYKLILNGKTLTGETTTIAVDAATAEKVLKQYANDNGVDGEWTFDYATKTFTVTE; also: GST-fused)", "Yes"]
]}

Is it the case that K13T/E19I/K28R/F30L/Y33F: GST-fused one-domain SpG-β1 mutant, amino acid SEQ ID NO: 27 (TTYKLILNGKTLTGETTTIAVDAATAERVLKQFANDNGVDGEWTYDDATKTFTVTE; also: GST-fused) has kon reaching or exceeding 90000 s/M? No

Is it the case that K13T/E19I/A23D/V39L: GST-fused one-domain SpG-β1 mutant, amino acid SEQ ID NO: 31 (TTYKLILNGKTLTGETTTIAVDDATAEKVFKQYANDNGLDGEWTYDDATKTFTVTE; also: GST-fused) has kon reaching or exceeding 90000 s/M? No

Is it the case that K13T/E19I/F30L/Y33F: GST-fused one-domain SpG-β1 mutant, amino acid SEQ ID NO: 47 (TTYKLILNGKTLTGETTTIAVDAATAEKVLKQFANDNGVDGEWTYDDATKTFTVTE; also: GST-fused) has kon reaching or exceeding 90000 s/M? Yes

Is it the case that K13T/E19I/V21D/K28I/F30L/K31R/D47H: GST-fused one-domain SpG-β1 mutant, amino acid SEQ ID NO: 75 (TTYKLILNGKTLTGETTTIADDAATAEIVLRQYANDNGVDGEWTYDHATKTFTVTE; also: GST-fused) has kon reaching or exceeding 90000 s/M? Yes

###

# Target System: anti-TNFα antibody-Fab (IgG-Fab derived from anti-TNFα monoclonal antibody, adalimumab) (Homo sapiens, UniProt P01834+P01857)
# Construct: cleaving a humanized monoclonal IgG formulation as a starting material into a Fab fragment and an Fc fragment by papain; purchased
# Assay Overview: Biacore 3000 surface plasmon resonance, affinity of SpG-β1 mutants for immobilized IgG-Fab
# Assay type: binding
# Test Settings: Table 2, Example 3; GST-fused one-domain peptide; 25° C., pH 7.4
Where no end group is shown, it is not given here.
Observation Type: kon (s/M)
Express the result in s/M but write the number alone.

{"columns": ["Substance", "kon / s/M"],
 "data": [
  ["K13T/E19I/F30L/Y33F/V39I/D47H: GST-fused one-domain SpG-β1 mutant, amino acid SEQ ID NO: 23 (TTYKLILNGKTLTGETTTIAVDAATAEKVLKQFANDNGIDGEWTYDHATKTFTVTE; also: GST-fused)", 79400],
  ["K13T/E19I/E27D/F30L/K31R: GST-fused one-domain SpG-β1 mutant, amino acid SEQ ID NO: 35 (TTYKLILNGKTLTGETTTIAVDAATADKVLRQYANDNGVDGEWTYDDATKTFTVTE; also: GST-fused)", 150000],
  ["K13T/D22N/A23T/T25S/F30L/A48T: GST-fused one-domain SpG-β1 mutant, amino acid SEQ ID NO: 73 (TTYKLILNGKTLTGETTTEAVNTASAEKVLKQYANDNGVDGEWTYDDTTKTFTVTE; also: GST-fused)", 104000],
  ["K13T/E15Q/E19V/F30L/V39L: GST-fused one-domain SpG-β1 mutant, amino acid SEQ ID NO: 61 (TTYKLILNGKTLTGQTTTVAVDAATAEKVLKQYANDNGLDGEWTYDDATKTFTVTE; also: GST-fused)", 89800]
]}

Look up kon of K13S/E19I/F30L: GST-fused one-domain SpG-β1 mutant, amino acid SEQ ID NO: 29 (TTYKLILNGKTLSGETTTIAVDAATAEKVLKQYANDNGVDGEWTYDDATKTFTVTE; also: GST-fused, end not given here) and report it. 137000

Look up kon of K13T/E19I/A23T/F30L/Y33F/D47N/K50R: GST-fused one-domain SpG-β1 mutant, amino acid SEQ ID NO: 45 (TTYKLILNGKTLTGETTTIAVDTATAEKVLKQFANDNGVDGEWTYDNATRTFTVTE; also: GST-fused) and report it. 120000

Look up kon of K13T/T18A/E19V/F30L/Y33F: GST-fused one-domain SpG-β1 mutant, amino acid SEQ ID NO: 67 (TTYKLILNGKTLTGETTAVAVDAATAEKVLKQFANDNGVDGEWTYDDATKTFTVTE; also: GST-fused) and report it. 93600

Look up kon of K13T/E15Q/E19I/E27D/V39I/D47H: GST-fused one-domain SpG-β1 mutant, amino acid SEQ ID NO: 77 (TTYKLILNGKTLTGQTTTIAVDAATADKVFKQYANDNGIDGEWTYDHATKTFTVTE; also: GST-fused) and report it. 124000

###

# Target System: anti-TNFα antibody-Fab (IgG-Fab derived from anti-TNFα monoclonal antibody, adalimumab) (Homo sapiens, UniProt P01834+P01857)
# Construct: cleaving a humanized monoclonal IgG formulation as a starting material into a Fab fragment and an Fc fragment by papain; purchased
# Assay Overview: Biacore 3000 surface plasmon resonance, affinity of SpG-β1 mutants for immobilized IgG-Fab
# Type: binding
# Test Settings: Table 2, Example 3; GST-fused one-domain peptide
Where no end group is shown, it is not given here.
Observation Type: KA (M⁻¹)
Express the result in M⁻¹ but write the number alone.

{"columns": ["Substance", "KA (M⁻¹)"],
 "data": [
  ["K13T/E19I/Y33F/N35Y/V39L: GST-fused one-domain SpG-β1 mutant, amino acid SEQ ID NO: 41 (TTYKLILNGKTLTGETTTIAVDAATAEKVFKQFAYDNGLDGEWTYDDATKTFTVTE; also: GST-fused)", "1.87e+06"],
  ["K13T/E19I/A23T/T25M/F30L: GST-fused one-domain SpG-β1 mutant, amino acid SEQ ID NO: 49 (TTYKLILNGKTLTGETTTIAVDTAMAEKVLKQYANDNGVDGEWTYDDATKTFTVTE; also: GST-fused)", "1.12e+06"],
  ["K13T/E19I/V21N/K28I/F30L: GST-fused one-domain SpG-β1 mutant, amino acid SEQ ID NO: 37 (TTYKLILNGKTLTGETTTIANDAATAEIVLKQYANDNGVDGEWTYDDATKTFTVTE; also: GST-fused)", "3.01e+06"]
]}

Okay, now this substance:
Look up KA of K13T/V21I/A23T/F30L/E42L: GST-fused one-domain SpG-β1 mutant, amino acid SEQ ID NO: 25 (TTYKLILNGKTLTGETTTEAIDTATAEKVLKQYANDNGVDGLWTYDDATKTFTVTE; also: GST-fused) and report it. 1.44e+06
